Each recorded value in this set is attributed to patent US20150037348A1.

tgt: T1, recombinant human IL-12 (rhIL-12) (human, UniProt P29459 23-219; P29460 23-328)
T1 construct: disulfide-linked p35/p40 heterodimer (p70); also called IL-12 p70; rec. human IL12
T1 sequence (looked up) 1: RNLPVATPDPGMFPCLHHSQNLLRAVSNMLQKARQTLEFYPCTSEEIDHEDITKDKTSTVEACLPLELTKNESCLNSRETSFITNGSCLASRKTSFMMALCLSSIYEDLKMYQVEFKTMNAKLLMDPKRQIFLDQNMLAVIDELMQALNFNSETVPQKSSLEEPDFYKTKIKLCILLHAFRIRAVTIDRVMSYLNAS
T1 sequence (looked up) 2: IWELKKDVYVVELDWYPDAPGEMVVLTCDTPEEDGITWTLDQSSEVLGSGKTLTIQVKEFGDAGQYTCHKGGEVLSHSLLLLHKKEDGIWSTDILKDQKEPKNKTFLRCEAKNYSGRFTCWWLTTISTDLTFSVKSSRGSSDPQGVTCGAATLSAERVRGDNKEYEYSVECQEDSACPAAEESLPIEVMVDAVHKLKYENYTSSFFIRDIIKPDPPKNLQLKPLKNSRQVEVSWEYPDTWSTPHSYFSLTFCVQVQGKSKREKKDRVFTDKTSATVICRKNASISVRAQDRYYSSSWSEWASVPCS
test-description: BIAcore SPR
outcome-measure: koff

These solved cases illustrate the format of a correct answer.
>>> value("Y61 IgG (antibody, V domains shown, whole IgG1; also called Y61-IgG1) VH: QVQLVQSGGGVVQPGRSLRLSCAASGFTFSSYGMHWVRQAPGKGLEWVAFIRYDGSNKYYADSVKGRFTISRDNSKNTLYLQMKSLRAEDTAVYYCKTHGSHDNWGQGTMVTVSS VL: SYVLTQPPSVSGTPGQRVTISCSGGRSWIGSNTVKWYQQLPGTAPKLLIYGNDQRPSGVPDRFSGSKSGTSASLAITGVQAEDEADYYCQSYDRGTHPALLFGTGTKVTVLG")
"0.00015 s⁻¹"
>>> value("AO3 IgG1 (antibody, V domains shown, IgG1) VH: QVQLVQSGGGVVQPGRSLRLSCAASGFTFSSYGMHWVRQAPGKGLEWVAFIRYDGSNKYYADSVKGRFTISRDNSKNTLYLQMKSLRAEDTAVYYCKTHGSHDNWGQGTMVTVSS VL: SYVLTQPPSVSGTPGQRVTISCSGGRSNIGSNTVKWYQQLPGTAPKLLIYGNDQRPSGVPDRFSGSKSGTSASLAITGVQAEDEADYYCQSYDRGTHPLTMFGTGTKVTVLG")
"0.000304 s⁻¹"
>>> value("AO3 IgG germline (antibody, V domains shown, IgG with germline frameworks as named; only the CDR3s are tied to it) VH: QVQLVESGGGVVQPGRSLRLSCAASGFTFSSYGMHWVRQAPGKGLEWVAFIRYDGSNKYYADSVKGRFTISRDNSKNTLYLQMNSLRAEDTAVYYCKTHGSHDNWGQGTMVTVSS VL: QSVLTQPPSVSGAPGQRVTISCSGSRSNIGSNTVKWYQQLPGTAPKLLIYGNDQRPSGVPDRFSGSKSGTSASLAITGLQAEDEADYYCQSYDRGTHPLTMFGTGTKVTVL")
"0.00025 s⁻¹"

Now examine the next entry.
Fill in: koff of Y61 IgG germline (antibody, V domains shown) VH: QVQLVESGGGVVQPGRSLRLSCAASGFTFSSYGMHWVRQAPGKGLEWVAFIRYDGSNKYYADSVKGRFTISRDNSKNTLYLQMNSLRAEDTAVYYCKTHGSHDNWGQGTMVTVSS VL: QSVLTQPPSVSGAPGQRVTISCSGSRSNIGSNTVKWYQQLPGTAPKLLIYGNDQRPSGVPDRFSGSKSGTSASLAITGLQAEDEADYYCQSYDRGTHPALLFGTGTKVTVL is ___ 0.00015 s⁻¹
